// data source = paper PMC9266914

Overview of reported HSA fluorescence intensity quenched across a group of compounds:
molecular target: human serum albumin (HSA) (Homo sapiens, UniProt P02768); experiment: HSA fluorescence quenching (Stern-Volmer); format: binding; conditions: two molar excesses of complex, 37 °C, 24 h, pH 7.4
Sequence (P02768 25-609): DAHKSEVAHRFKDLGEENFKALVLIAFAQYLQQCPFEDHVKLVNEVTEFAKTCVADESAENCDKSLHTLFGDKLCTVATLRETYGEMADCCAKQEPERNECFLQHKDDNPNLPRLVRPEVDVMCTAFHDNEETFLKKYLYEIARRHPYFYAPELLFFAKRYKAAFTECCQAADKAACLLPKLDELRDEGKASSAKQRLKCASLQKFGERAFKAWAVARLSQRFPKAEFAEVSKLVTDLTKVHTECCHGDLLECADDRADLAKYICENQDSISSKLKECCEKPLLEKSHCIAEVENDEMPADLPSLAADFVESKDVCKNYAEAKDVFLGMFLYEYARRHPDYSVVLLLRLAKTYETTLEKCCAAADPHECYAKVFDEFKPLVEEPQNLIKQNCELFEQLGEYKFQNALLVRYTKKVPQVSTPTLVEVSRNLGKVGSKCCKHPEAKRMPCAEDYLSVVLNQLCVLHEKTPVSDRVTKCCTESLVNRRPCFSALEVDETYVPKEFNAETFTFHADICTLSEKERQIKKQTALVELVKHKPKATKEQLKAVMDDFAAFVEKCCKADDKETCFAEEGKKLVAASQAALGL

Below: 3 compounds and their reported HSA fluorescence intensity quenched.
compound: CCn1c2c(sc1=[Se])[S][Au-]1([S]c3sc(=[Se])n(CC)c3[S]1)[S]2.c1ccc([P+](c2ccccc2)(c2ccccc2)c2ccccc2)cc1 [[P][AuSEt(=Se)]]
observed result: 79.4%

compound: CC(C)n1c2c(sc1=S)[Se][Au-]1([Se]c3sc(=S)n(C(C)C)c3[Se]1)[Se]2.c1ccc([P+](c2ccccc2)(c2ccccc2)c2ccccc2)cc1 [[P][AuSeiPr(=S)]]
observed result: 60%

compound: CCn1c2c(sc1=S)[S][Au-]1([S]c3sc(=S)n(CC)c3[S]1)[S]2.c1ccc([P+](c2ccccc2)(c2ccccc2)c2ccccc2)cc1 [[P][AuSEt(=S)]]
observed result: 76.3%

We now examine a further compound.
Problem: Provide HSA fluorescence intensity quenched value for the following compound: CCCCn1c2c(sc1=S)[S][Au-]1([S]c3sc(=S)n(CCCC)c3[S]1)[S]2.c1ccc([P+](c2ccccc2)(c2ccccc2)c2ccccc2)cc1 [[P][AuSBu(=S)]]
Result: 89.7%

* * *

assay: Cyclic voltammetry; assay type: physicochemical; conditions: CH2Cl2, NBu4PF6, Pt, 100 mV.s^−1
One threshold, 0.7 V vs. SCE, splits the recorded Epc2 0/+1 values: lower ones are 1 (yes), equal or higher ones are 0 (no).

Here's what some known entries look like.
molecule: Cn1c2c(sc1=S)[S][Au-]1([S]c3sc(=S)n(C)c3[S]1)[S]2 [[AuSMe(=S)]^−1]
class assignment: 1 (yes)
--
molecule: CCN1C(=C(C#N)C#N)SC2=C1[S][Au-]1([S]2)[S]C2=C([S]1)N(CC)C(=C(C#N)C#N)S2 [[AuSEt(=C(CN)2)]^−1]
class assignment: 0 (no)
--
molecule: CCn1c2c(sc1=O)[S][Au-]1([S]c3sc(=O)n(CC)c3[S]1)[S]2 [[AuSEt(=O)]^−1]
class assignment: 0 (no)
--
molecule: CCn1c2c(sc1=S)[S][Au-]1([S]c3sc(=S)n(CC)c3[S]1)[S]2 [[AuSEt(=S)]^−1]
class assignment: 1 (yes)

Problem: For CCCCn1c2c(sc1=S)[S][Au-]1([S]c3sc(=S)n(CCCC)c3[S]1)[S]2 [[AuSBu(=S)]^−1] , is the recorded Epc2 0/+1 below the cut-off of 0.7 V vs. SCE?
Result: 1 (yes)

Problem: For CCCn1c2c(sc1=S)[S][Au-]1([S]c3sc(=S)n(CCC)c3[S]1)[S]2 [[AuSPr(=S)]^−1] , is the recorded Epc2 0/+1 below the cut-off of 0.7 V vs. SCE?
Result: 1 (yes)

* * *

biological target: thioredoxin reductase (TrxR) (Rattus norvegicus, UniProt O89049); construct: purchased Sigma-Aldrich; assay: Thioredoxin reductase inhibition, colorimetric DTNB assay; type: biochemical; conditions: 0.1 nM–2 µM
Sequence (O89049 whole entry): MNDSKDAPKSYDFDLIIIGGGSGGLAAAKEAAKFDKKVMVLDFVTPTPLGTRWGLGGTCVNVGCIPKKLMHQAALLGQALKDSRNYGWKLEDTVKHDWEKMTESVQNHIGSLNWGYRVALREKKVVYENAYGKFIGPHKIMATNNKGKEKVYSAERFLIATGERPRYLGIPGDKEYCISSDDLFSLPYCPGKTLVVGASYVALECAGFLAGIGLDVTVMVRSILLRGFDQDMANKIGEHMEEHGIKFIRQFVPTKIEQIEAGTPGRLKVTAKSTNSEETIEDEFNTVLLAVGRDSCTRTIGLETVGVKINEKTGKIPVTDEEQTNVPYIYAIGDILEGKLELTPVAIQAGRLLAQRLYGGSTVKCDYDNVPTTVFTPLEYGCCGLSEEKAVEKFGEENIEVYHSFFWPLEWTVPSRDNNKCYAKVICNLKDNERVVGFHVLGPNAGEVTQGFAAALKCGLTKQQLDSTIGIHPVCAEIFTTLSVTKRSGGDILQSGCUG
measured endpoint: pIC50
Expect pIC50 as a plain number equal to -log10 of the molar concentration.

Problem: Provide pIC50 value for the following molecule: CC(=O)OC[C@H]1O[C@@H]([S-])[C@H](OC(C)=O)[C@@H](OC(C)=O)[C@@H]1OC(C)=O.CCP(CC)CC.[Au+] [Auranofin, reference compound]
Result: 7.59

* * *

molecular target: human serum albumin (HSA) (Homo sapiens); experiment: HSA fluorescence quenching (Stern-Volmer); type: binding; settings: HSA, Hepes pH 7.4
Overview of reported association constant Ka across a group of compounds:

compound: CC(C)n1c2c(sc1=S)[Se][Au-]1([Se]c3sc(=S)n(C(C)C)c3[Se]1)[Se]2.c1ccc([P+](c2ccccc2)(c2ccccc2)c2ccccc2)cc1 [[P][AuSeiPr(=S)]]
subject of test: human serum albumin (HSA) (Homo sapiens)
observed result: 1.52 ± 0.01 x 104 L mol-1

Problem: Provide association constant Ka value for the following compound: CCn1c2c(sc1=[Se])[S][Au-]1([S]c3sc(=[Se])n(CC)c3[S]1)[S]2.c1ccc([P+](c2ccccc2)(c2ccccc2)c2ccccc2)cc1 [[P][AuSEt(=Se)]]
Result: 0.52 ± 0.03 x 104 L mol-1

Problem: Provide association constant Ka value for the following compound: CCCCn1c2c(sc1=S)[S][Au-]1([S]c3sc(=S)n(CCCC)c3[S]1)[S]2.c1ccc([P+](c2ccccc2)(c2ccccc2)c2ccccc2)cc1 [[P][AuSBu(=S)]]
Result: 9.34 ± 0.01 x 104 L mol-1

Problem: Provide association constant Ka value for the following compound: CCn1c2c(sc1=S)[S][Au-]1([S]c3sc(=S)n(CC)c3[S]1)[S]2.c1ccc([P+](c2ccccc2)(c2ccccc2)c2ccccc2)cc1 [[P][AuSEt(=S)]]
Result: 1.12 ± 0.02 x 104 L mol-1

* * *

biological target: human serum albumin (HSA) (Homo sapiens, UniProt P02768); assay: HSA fluorescence quenching (Stern-Volmer); format: binding; conditions: HSA, Hepes pH 7.4
Overview of reported number of binding sites n across a group of compounds:
// print number alone

Below: 3 compounds and their reported number of binding sites n.
compound: CCCCn1c2c(sc1=S)[S][Au-]1([S]c3sc(=S)n(CCCC)c3[S]1)[S]2.c1ccc([P+](c2ccccc2)(c2ccccc2)c2ccccc2)cc1 [[P][AuSBu(=S)]]
observed result: 0.738
--
compound: CCn1c2c(sc1=S)[S][Au-]1([S]c3sc(=S)n(CC)c3[S]1)[S]2.c1ccc([P+](c2ccccc2)(c2ccccc2)c2ccccc2)cc1 [[P][AuSEt(=S)]]
observed result: 1.179
--
compound: CCn1c2c(sc1=[Se])[S][Au-]1([S]c3sc(=[Se])n(CC)c3[S]1)[S]2.c1ccc([P+](c2ccccc2)(c2ccccc2)c2ccccc2)cc1 [[P][AuSEt(=Se)]]
observed result: 2.135

Problem: Provide number of binding sites n value for the following compound: CC(C)n1c2c(sc1=S)[Se][Au-]1([Se]c3sc(=S)n(C(C)C)c3[Se]1)[Se]2.c1ccc([P+](c2ccccc2)(c2ccccc2)c2ccccc2)cc1 [[P][AuSeiPr(=S)]]
Result: 0.957

* * *

test system: A2780 ovarian cancer cells; assay: MTT cytotoxicity assay in A2780 (cisplatin sensitive) ovarian cancer cells; assay type: cell-based, human; settings: 24 h incubation, read-out: IC50 A2780, 24 h
measured endpoint: IC50

compound: CC[N+](CC)(CC)CC.CCn1c2c(sc1=S)[Se][Au-]1([Se]c3sc(=S)n(CC)c3[Se]1)[Se]2 [[N][AuSeEt(=S)]]
observed result: 19200 nM

compound: CCN1C(=C(C#N)C#N)SC2=C1[S][Au-]1([S]2)[S]C2=C([S]1)N(CC)C(=C(C#N)C#N)S2.CC[N+](CC)(CC)CC [[N][AuSEt(=C(CN)2)]]
observed result: 1320 nM

We now examine a further compound.
Problem: Provide IC50 value for the following compound: CC(C)n1c2c(sc1=S)[Se][Au-]1([Se]c3sc(=S)n(C(C)C)c3[Se]1)[Se]2.c1ccc([P+](c2ccccc2)(c2ccccc2)c2ccccc2)cc1 [[P][AuSeiPr(=S)]]
Result: 3740 nM

* * *

Experiment: Cyclic voltammetry
Type: physicochemical
Conditions: CH2Cl2, NBu4PF6, Pt, 100 mV.s^−1
Experimental: The redox properties of the various gold(III) bis(dithiolene) and bis(diselenolene) complexes were investigated by cyclic voltammetry using the same conditions, dichloromethane solutions and NBu4PF6 as supporting electrolyte. […] Thus, only the result of one monoanion is included in Table 1, even if the two salts were analyzed. […] All reagents and materials from commercial sources were used without further purification. […] Potentials were measured versus KCl Saturated Calomel Electrode (SCE). […]
Marks after values point to notes of the source that are not given here.
Overview of reported E −2/−1 (reduction of monoanion into dianion) across a group of compounds:

Below: 4 compounds and their reported E −2/−1 (reduction of monoanion into dianion).
compound: CCCn1c2c(sc1=S)[S][Au-]1([S]c3sc(=S)n(CCC)c3[S]1)[S]2 [[AuSPr(=S)]^−1]
observed result: −0.85 ** V vs. SCE
--
compound: CCCCn1c2c(sc1=S)[S][Au-]1([S]c3sc(=S)n(CCCC)c3[S]1)[S]2 [[AuSBu(=S)]^−1]
observed result: −0.88 ** V vs. SCE
--
compound: CCCn1c2c(sc1=[Se])[S][Au-]1([S]c3sc(=[Se])n(CCC)c3[S]1)[S]2 [[AuSPr(=Se)]^−1]
observed result: −0.84 ** V vs. SCE
--
compound: CCn1c2c(sc1=O)[S][Au-]1([S]c3sc(=O)n(CC)c3[S]1)[S]2 [[AuSEt(=O)]^−1]
observed result: −1.05 ** V vs. SCE

Problem: Provide E −2/−1 (reduction of monoanion into dianion) value for the following compound: CCCn1c2c(sc1=S)[Se][Au-]1([Se]c3sc(=S)n(CCC)c3[Se]1)[Se]2 [[AuSePr(=S)]^−1]
Result: −0.90 V vs. SCE
